Items are presented alongside their recorded fluorescence quantum yield of the antibody conjugates obtained from the dye.
# ASSAY_INFO: Fluorescence spectra, quantum yield and excited state lifetime
# Type: physicochemical
# RUN_PARAMETERS: after attaching to antibodies
Give the number first and the unit second.

Some solved cases for reference:
[
  {
    "MOLECULE": "CN(CCCC(=O)O)C(=O)c1c(F)c(F)c(F)c(F)c1C1=c2cc3c4c(c2Oc2c1cc1c5c2CCCN5C(C)(C)C=C1CO)CCC[N+]=4C(C)(C)C=C3CO [Compound 24-H]",
    "RESULT_VALUE": "66%"
  },
  {
    "MOLECULE": "CN(CCCC(=O)O)C(=O)c1c(F)c(F)c(F)c(F)c1C1=c2cc3c4c(c2Oc2c1cc1c5c2CCCN5C(C)(C)C=C1COP(=O)(O)O)CCC[N+]=4C(C)(C)C=C3COP(=O)([O-])O [Compound 26-H]",
    "RESULT_VALUE": "51%"
  },
  {
    "MOLECULE": "CC1(C)C=C(CS(=O)(=O)O)c2cc3cc(-c4ccncc4)c(=O)oc3cc2N1CCCC(=O)O [Compound 20-H, reference compound]",
    "RESULT_VALUE": "18%"
  }
]

Given the entry CC1(C)C=C(COP(=O)(O)O)c2cc3cc(-c4ccncc4)c(=O)oc3cc2N1CCCC(=O)O [Compound 11] , report its measured fluorescence quantum yield of the antibody conjugates obtained from the dye.
30%
